test: Cytotoxicity against human MM6 cells assessed as inhibition of cell growth incubated for 72 hrs by MTS assay; assay type: functional, cell-based
IC50 listing for selected molecules.

SMILES_NOTATION	RESULT_UNITS	IC50
Cc1noc(C)c1-c1cc(Cl)c(Nc2ccccc2C(=O)NO)c(Cl)c1	µM	1.5
Cc1noc(C)c1-c1cc(Cl)c(Nc2ccccc2C(=O)O)c(Cl)c1	µM	23.6
Cc1noc(C)c1-c1cc(Cl)c(Nc2ccccc2-c2noc(=O)[nH]2)c(Cl)c1	µM	5.8

---

tested on: NB-4; assay: Cytotoxicity against human NB4 cells assessed as inhibition of cell growth incubated for 72 hrs by MTS assay relative to control; type: functional
Threshold check on growth inhibition (GI): at or above 40% gives YES, strictly below gives NO.

SMILES_NOTATION	STUDY_TARGET	CATEGORY
O=C(O)c1ccccc1Nc1c(Cl)cc(-c2ccn[nH]2)cc1Cl	NB-4	NO
Cc1noc(C)c1-c1cc(Cl)c(Nc2ccccc2C(=O)NO)c(Cl)c1	NB-4	YES
Cc1n[nH]c(C)c1-c1cc(Cl)c(Nc2ccccc2C(=O)O)c(Cl)c1	NB-4	NO
Cc1noc(C)c1-c1cc(Cl)c(Nc2ccccc2C(=O)O)c(Cl)c1	NB-4	YES
Cc1noc(C)c1-c1cc(Cl)c(Nc2ccccc2-c2noc(=O)[nH]2)c(Cl)c1	NB-4	YES
Cc1noc(C)c1-c1cc(Cl)c(Nc2ccccc2-c2nn[nH]n2)c(Cl)c1	NB-4	NO
